# tgt: T1, biotinylated recombinant mouse IL-12Rβ2 (produced in-house) (mouse, UniProt P97378 24-637, randomly biotinylated)
# T1 construct: also called mIL-12RB2; mouse IL-12RB2
# T1 sequence: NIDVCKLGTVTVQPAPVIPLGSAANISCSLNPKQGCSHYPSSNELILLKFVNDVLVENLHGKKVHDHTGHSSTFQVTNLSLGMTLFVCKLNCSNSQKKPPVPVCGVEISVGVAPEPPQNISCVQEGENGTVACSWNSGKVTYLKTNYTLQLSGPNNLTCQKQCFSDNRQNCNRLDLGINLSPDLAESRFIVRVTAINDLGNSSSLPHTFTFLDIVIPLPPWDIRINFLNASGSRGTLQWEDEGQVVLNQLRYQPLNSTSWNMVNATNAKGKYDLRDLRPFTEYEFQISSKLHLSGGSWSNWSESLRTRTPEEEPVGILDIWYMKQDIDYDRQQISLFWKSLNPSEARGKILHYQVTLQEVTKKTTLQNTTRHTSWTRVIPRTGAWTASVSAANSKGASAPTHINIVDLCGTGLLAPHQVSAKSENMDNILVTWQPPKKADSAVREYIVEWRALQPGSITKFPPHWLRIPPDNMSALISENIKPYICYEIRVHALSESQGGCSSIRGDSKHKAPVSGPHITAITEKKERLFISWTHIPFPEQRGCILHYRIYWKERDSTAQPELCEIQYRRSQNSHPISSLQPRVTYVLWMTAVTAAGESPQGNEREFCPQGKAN
# experiment: ELISA, periplasmic extract on biotinylated mouse IL-12Rβ2; control streptavidin-coated blocked wells
measurement_name: ELISA binding mIL-12RB2/control

>>> reported_value("anti-IL-12Rβ2 VHH clone 2CRM16 (VHH, Tested as periplasmic extract; CDR3 group 18) VHH: QVQLQESGGGLVQAGGSLRLSCAASGRTFSNYRMGWFRQAPGKEREFVAGINWDGGHTYYTDSVKGRFTISRDNAKNTVYLQMNSLKPEDTAVYQCAVRVREYGSSRYEDQFDYWGQGTQVTVSS")
"4.12 ratio to control"
>>> reported_value("anti-IL-12Rβ2 VHH clone 2CRMS29 (VHH, Tested as periplasmic extract; CDR3 group 52; also called 20521) VHH: QVQLQESGGGLVQAGGPLRLSCAASGRTFSGSAMGWFRQAPGKEREFVAAITWVGGFTYYADSVKGRFTISRDNAKNTVYLQMNNLSPEDTAVYSCAAQAYHKSGYYYPPLYDYWGQGTQVTVSS")
"5.85 ratio to control"
>>> reported_value("anti-IL-12Rβ2 VHH clone 2CAM39 (VHH, Tested as periplasmic extract; CDR3 group 46; also called 20482) VHH: QVQLQESGGGLVQAGGSLRLSCAASGRTFSTYAMGWFRQAPGKEREFVAAISWSGGSTYYADSVKGRFTISRDNAKNTGYLQMNSLKPEDTAVYVCAADAEDPILYGSSWNNRRKEYDYWGQGTQVTVSS")
"8.02 ratio to control"
>>> reported_value("anti-IL-12Rβ2 VHH clone 2CRM28 (VHH, Tested as periplasmic extract; CDR3 group 40) VHH: QVQLQESGGGLVQPGGSLRLSCAASGRAWNEYNMGWFRQAPGKEREFVALIWWSSGNTYYADSVKGRFTISRDKVKNTVYLQMNSLKPEDTAVYYCAAGPTFNKYEYWGQGTQVTVSS")
"13.5 ratio to control"

Values compiled from patent US20260209362A1.
